Tested on: OVCAR-5 ovarian
Assay: NCI tumour cell line growth inhibition, 48 h
Where a SMILES comes first, the peptide text is derived from it. The star is where a group is joined. Boc = CC(C)(C)OC(=O)*
Each entry below lists one item and its recorded TGI value.

Examples from the recorded data:
{"columns": ["compound", "TGI"],
 "data": [
  ["N#Cc1cccc(/C=N/N=C(\\N)NO)c1", "> 100 µM"],
  ["CCOC(=O)CCC(NC(=O)c1ccc(OCc2ccc3nc(-c4ccccc4)c(Cl)nc3c2)cc1)C(=O)OCC (centres undefined)", "> 31.6 µM"],
  ["COC(=O)C(Cc1c[nH]c2ccccc12)NC(=O)C(Cc1c[nH]c2ccccc12)NC(=O)C(Cc1c[nH]c2ccccc12)NC(=O)C(Cc1c[nH]c2ccccc12)NC(=O)C(Cc1c[nH]c2ccccc12)NC(=O)C(Cc1c[nH]c2ccccc12)NC(=O)C(Cc1c[nH]c2ccccc12)NC(=O)C(Cc1c[nH]c2ccccc12)NC(=O)OC(C)(C)C (centres undefined) (Boc-WWWWWWWW-OMe; configuration not given here)", "> 100 µM"],
  ["N#CC1(C#N)C(C#N)(C#N)C12CCCCCC2", "30 µM"],
  ["CC(=O)C1CC[C@@H]2[C@H](CC[C@]3(C)[C@@H](O)CC[C@@H]23)[C@H]1C(=O)O (some centres undefined)", "> 100 µM"],
  ["CC(C)=CC1=C2C3=C(C(=O)C4(O)Oc5c(C)c6c7c(c5OC24C)[C@@H](C)CC[C@@H]7[C@@H](C)C[C@H]6C=C(C)C)C(C)CCC3C(C)C1 (some centres undefined)", "> 100 µM"],
  ["CC(C)/C(Cl)=N\\OC(=O)Nc1cccc(Cl)c1", "18.3 µM"],
  ["CN(C)c1nc(Cl)c2c(-c3ccccc3)c(-c3ccccc3)oc2n1", "> 100 µM"],
  ["CC(=O)O[C@H]1[C@H](OC(=O)CC(C)(O)CC(=O)O)C[C@]2(C)C3=C(CCC2C1(C)C)[C@]1(C)CC[C@H]([C@H]2CC[C@H](C(C)(C)O)OC2O)[C@@]1(C)[C@@H](O)C3 (some centres undefined)", "31.7 µM"],
  ["COC(=O)CC[C@H](Cc1ccccc1)NC(=O)c1csc([C@@H](C[C@H](C(C)C)N(C)C(=O)[C@@H](NC(=O)[C@H]2CCCCN2C)C(C)C)OC(C)=O)n1", "> 25 µM"]
]}

The reported TGI of the compound COc1cc(Cc2nccc3cc(OC)c(OC)cc23)c(N=NN(C)C)cc1OC was 40.9 µM

The reported TGI of the compound CCCCn1c2c(n(CCCC)c1=S)-c1c(n(CCCC)c(=S)n1CCCC)SSc1c(n(CCCC)c(=S)n1CCCC)-c1c(n(CCCC)c(=S)n1CCCC)SSc1c(n(CCCC)c(=S)n1CCCC)-c1c(n(CCCC)c(=S)n1CCCC)SS2 was 25.4 µM

The reported TGI of the compound O=C1c2ccccc2S(=O)(=O)c2cc(-c3nn[nH]n3)ccc21 was > 100 µM

The reported TGI of the compound O=C(c1ccccc1)c1cn(/N=C\c2ccccc2)c(=O)nc1-c1ccccc1 was > 100 µM

Hey, just so you know, these numbers are from PubChem BioAssay (NCI).
